So I've got a bunch of compounds here, and I need their IC50 values.
system: human melanoma cell line A375; test: Antiproliferation assay, 72 hrs under air, Alamar Blue; format: cell-based; conditions: Homo sapiens, A-375
One number for each entry, in nM.

Batch request: IC50 for each of the following compounds.
1. CCc1c2c(nc3ccccc13)-c1c(N)c3c(c(=O)n1C2)COC(=O)[C@]3(O)CC
2. CC[C@@]1(O)C(=O)OCc2c1c(N)c1n(c2=O)Cc2cc3ccccc3nc2-1
3. CC[C@@]1(O)C(=O)OCc2c1c(N)c1n(c2=O)Cc2c-1nc1ccccc1c2C

1. 7
2. 22
3. 3

###

assay: In vivo pharmacokinetics, oral gavage; conditions: CD, mouse, in vivo, po
So I've got a bunch of compounds here, and I need their half-life values.
Give bare numbers, in h.

As a guide, the following entries are already answered.
>>> reading("CCc1c2c(nc3ccccc13)-c1c([N+](=O)[O-])c3c(c(=O)n1C2)COC(=O)[C@]3(O)CC")
6.25
>>> reading("CC[C@@]1(O)C(=O)OCc2c1c([N+](=O)[O-])c1n(c2=O)Cc2c-1nc1ccccc1c2C")
0.59
>>> reading("CC[C@@]1(O)C(=O)OCc2c1c(N)c1n(c2=O)Cc2cc3c(N)cccc3nc2-1")
0.427
>>> reading("CC[C@@]1(O)C(=O)OCc2c1c(N)c1n(c2=O)Cc2cc3ccccc3nc2-1")
1.98
>>> reading("CCc1c2c(nc3ccccc13)-c1c(N)c3c(c(=O)n1C2)COC(=O)[C@]3(O)CC")
4.17

Continue with the next compound.
Give the reported value of half-life for this record: `CCc1c2c(nc3ccccc13)-c1c(NC=O)c3c(c(=O)n1C2)COC(=O)[C@]3(O)CC`
0.805
